Experiment: self-splicing fitness, log relative to wild type (ln ratio); higher = more splicing; Tetrahymena group I intron in knt gene, E. coli kanamycin selection, DiMSum; sequences stand for … in CUCUCU…GGAGGGAAAAGUUAUCAGGCAUGCACCUGGUAGCUAGUCUUUAAACCAAUAGAUUGCAUCGGUUUAAAAGGCAAGACCGUCAAAUUGCGGGAAAGGGGUCAACAGCCGUUCAGUACCAAGUCUCAGGGGAAACUUUGAGAUGGCCUUGCAAAGGGUAUGGUAAUAAGCUGACGGACAUGGUCCUAACCACGCAGCCAAGUCCUAAGUCAACAGAUCUUCUGUUGAUAUGGAUGCAGUUCACAGACUAAAUGUCGGUCGGGGAAGAUGUAUUCUUCUCAUAAGAUAUAGUCGGACCUCUCCUUAAUGGGAGCUAGCGGAUGAAGUGAUGCAACACUGGAGCCGCUGGGAACUAAUUUGUAUGCGAAAGUAUAUUGAUUAGUUUUGGAGUACUCGUGGUCG;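 note: selection with 25 µg/mL kanamycin versus none on LB agar overnight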
Settings: 37 °C
METRIC NAME: self-splicing fitness (ln)
One number for each entry.

BIOSEQUENCE: UUAAAGCAAUAUUACGAUGG
self-splicing fitness (ln): 0.04
//
BIOSEQUENCE: UUUCAGCAAUAUUACGCUUU
self-splicing fitness (ln): -1.52
//
BIOSEQUENCE: CUUUAGCAAUAUUACGUCCG
self-splicing fitness (ln): -0.326
//
BIOSEQUENCE: GAUCAGCAAUAUUACGAUGU
self-splicing fitness (ln): 0.0452
//
BIOSEQUENCE: UGAAAGCAAUAUUACGGCUU
self-splicing fitness (ln): -1.81

Fill in self-splicing fitness (ln) for each of the 6 sequences listed.
1. CAUUAGCAAUAUUACGGGAA
2. AACCAGCAAUAUUACGCACG
3. CCAUAGCAAUAUUACGCUCU
4. CUACAGCAAUAUUACGACGA
5. GAAGAGCAAUAUUACGACCU
6. UACAAGCAAUAUUACGAAAU

Reply:
-2.59
-0.215
-2.85
-2.02
-0.296
-3.01

Fill in self-splicing fitness (ln) for each of the 6 sequences listed.
1. AUGAAGCAAUAUUACGCAGG
2. ACGUAGCAAUAUUACGCGGG
3. UCUCAGCAAUAUUACGGAGG
4. CACAAGCAAUAUUACGCAAG
5. AACUAGCAAUAUUACGCCGA
6. AUCCAGCAAUAUUACGCAGC

Reply:
1. -0.916
2. -0.863
3. -1.97
4. -0.814
5. -0.583
6. -1.26

Fill in self-splicing fitness (ln) for each of the 5 sequences listed.
1. CCGUAGCAAUAUUACGCACA
2. AUCUAGCAAUAUUACGGCUC
3. AGGCAGCAAUAUUACGGCAU
4. CGCAAGCAAUAUUACGGAUA
5. CUAAAGCAAUAUUACGAACA

Reply:
1: -1.44; 2: -0.185; 3: 0.15; 4: -2.23; 5: -2.03

====

Experiment: self-splicing fitness, log relative to wild type (ln ratio); higher = more splicing; Tetrahymena group I intron in knt gene, E. coli kanamycin selection, DiMSum; sequences stand for … in CUCUCU…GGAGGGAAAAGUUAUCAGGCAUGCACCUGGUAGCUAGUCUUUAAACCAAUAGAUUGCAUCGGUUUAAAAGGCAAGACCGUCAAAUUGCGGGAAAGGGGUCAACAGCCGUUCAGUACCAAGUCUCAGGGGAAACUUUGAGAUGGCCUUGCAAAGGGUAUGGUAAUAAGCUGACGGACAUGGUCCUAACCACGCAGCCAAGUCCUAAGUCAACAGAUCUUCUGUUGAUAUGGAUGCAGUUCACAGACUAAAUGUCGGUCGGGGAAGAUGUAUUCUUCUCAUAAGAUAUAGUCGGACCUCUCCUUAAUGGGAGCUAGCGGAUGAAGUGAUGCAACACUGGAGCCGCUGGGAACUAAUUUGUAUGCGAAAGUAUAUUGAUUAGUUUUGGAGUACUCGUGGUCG
Settings: 30 °C
Answer each item with its documented self-splicing fitness (ln).
Answers are plain numbers.

BIOSEQUENCE: GGUUAGCAAUAUUACGCACA
self-splicing fitness (ln): -0.431

BIOSEQUENCE: CCCUAGCAAUAUUACGAUCA
self-splicing fitness (ln): -3.03

BIOSEQUENCE: GAGCAGCAAUAUUACGAAGU
self-splicing fitness (ln): -2.87

Fill in self-splicing fitness (ln) for each of the 4 sequences listed.
1. AAUUAGCAAUAUUACGUCCA
2. GUCGAGCAAUAUUACGACAG
3. GGGUAGCAAUAUUACGGCGA
4. ACAAAGCAAUAUUACGUCAU

Reply:
1. -0.685
2. -2.66
3. -0.516
4. -3.08

Ask: Answer with the recorded self-splicing fitness (ln) for the sequence listed here: GACUAGCAAUAUUACGCCGC
Reply: -3.31
